# pIC50 values compiled below
# Test system: BACE1 (Aβ40 from cells stably expressing Amyloid Precursor Protein)
# test name: In vitro BACE1 cell-based assay (Aβ40 in conditioned medium, HTRF)
# experimental setup: Aβ40, 24 h incubation; read-out: BACE1 Cell IC50
pIC50: −log10 of the molar value.
property name: pIC50

INSERT INTO results (molecule, property_name, value_measured) VALUES
  ('C#CCOc1cnc(/C(F)=C/c2ccc(F)c([C@]34CN(C(=O)CC)C[C@H]3CSC(N)=N4)c2)cn1', 'pIC50', 8.07),
  ('COc1cnc(/C(F)=C/c2ccc(F)c([C@]34CN(c5ncc(F)cn5)C[C@H]3CSC(N)=N4)c2)cn1', 'pIC50', 7.80),
  ('NC1=N[C@@]2(c3cc(/C=C(\F)c4ccc(F)cn4)ccc3F)CO[C@H](C(F)(F)F)[C@H]2CS1', 'pIC50', 6.95),
  ('NC1=N[C@@]2(c3cc(/C=C(\F)c4cnc(OCC(F)F)cn4)ccc3F)CN(c3ncc(F)cn3)C[C@H]2CS1', 'pIC50', 8.03),
  ('N#Cc1ccc(/C(F)=C/c2ccc(F)c([C@]34COC[C@H]3CSC(N)=N4)c2)nc1', 'pIC50', 7.39),
  ('C#CCOc1cnc(/C(F)=C/c2ccc(F)c([C@]34CN(C(=O)CC(F)(F)F)C[C@H]3CSC(N)=N4)c2)cn1', 'pIC50', 7.58),
  ('N#Cc1ccc(/C(F)=C/c2ccc(F)c([C@]34CN(c5ncccn5)C[C@H]3CSC(N)=N4)c2)nc1', 'pIC50', 8.74),
  ('NC1=N[C@]2(c3cc(/C=C(\F)c4ccc(Cl)cn4)ccc3F)COC[C@@H]2CS1', 'pIC50', 5.65);
